Biological target: human TRPA1 (Homo sapiens, UniProt O75762, K186N/R3C/R58T)
Construct: host or cells: HEK293 FlpIn
Sequence (O75762 whole entry R3C/R58T/K186N): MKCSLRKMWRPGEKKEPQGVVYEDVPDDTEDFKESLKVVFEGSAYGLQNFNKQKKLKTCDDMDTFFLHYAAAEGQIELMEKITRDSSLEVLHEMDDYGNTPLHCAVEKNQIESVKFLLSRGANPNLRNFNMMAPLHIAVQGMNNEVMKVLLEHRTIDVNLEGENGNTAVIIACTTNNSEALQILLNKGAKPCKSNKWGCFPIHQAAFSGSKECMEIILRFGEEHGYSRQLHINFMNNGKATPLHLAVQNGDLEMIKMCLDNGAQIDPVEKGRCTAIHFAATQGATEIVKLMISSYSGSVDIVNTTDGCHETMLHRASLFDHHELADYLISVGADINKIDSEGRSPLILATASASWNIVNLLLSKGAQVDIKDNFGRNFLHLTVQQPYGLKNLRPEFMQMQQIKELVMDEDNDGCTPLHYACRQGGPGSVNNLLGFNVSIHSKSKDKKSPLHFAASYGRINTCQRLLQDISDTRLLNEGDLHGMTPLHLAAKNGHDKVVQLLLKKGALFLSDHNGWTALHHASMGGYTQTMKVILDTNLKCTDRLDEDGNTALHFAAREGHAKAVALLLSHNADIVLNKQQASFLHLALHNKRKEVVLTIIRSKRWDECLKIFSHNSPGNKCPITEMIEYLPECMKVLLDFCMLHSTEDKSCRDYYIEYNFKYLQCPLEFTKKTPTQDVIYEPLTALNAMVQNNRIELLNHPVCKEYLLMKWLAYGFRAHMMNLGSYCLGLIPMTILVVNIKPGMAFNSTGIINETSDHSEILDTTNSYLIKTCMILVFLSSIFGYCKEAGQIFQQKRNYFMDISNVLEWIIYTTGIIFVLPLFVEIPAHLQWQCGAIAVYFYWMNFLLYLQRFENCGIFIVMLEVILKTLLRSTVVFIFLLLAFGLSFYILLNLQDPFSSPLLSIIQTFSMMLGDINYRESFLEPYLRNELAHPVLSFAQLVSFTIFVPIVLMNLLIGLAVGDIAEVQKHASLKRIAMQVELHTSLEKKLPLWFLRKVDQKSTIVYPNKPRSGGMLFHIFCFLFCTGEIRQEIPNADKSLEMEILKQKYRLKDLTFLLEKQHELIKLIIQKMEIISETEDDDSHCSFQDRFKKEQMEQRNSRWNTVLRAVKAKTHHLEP
Experiment: High Throughput Calcium Imaging Assay (FLIPR, cinnamaldehyde-activated Ca2+ influx)
Format: cell-based
Details: HEK293 FlpIn cells stably expressing human TRPA1; EC60 cinnamaldehyde; Fluo-4AM; read-out: TRPA1 hFLIPR IC50
attribute-measured: IC50 (nM)
Give bare numbers, in nM.

Examples from the recorded data:
O[C@]12CCCC[C@@H]1CCC[C@H]2Nc1ccccc1
54
O[C@]12CCCO[C@H]1CCC[C@H]2Nc1ccc(F)cc1
520
O[C@@]12CCCO[C@H]1CCC[C@@H]2Nc1ccc(F)cc1 (stereo in doubt)
850

I have 2 compounds here; please give me IC50 for each one.
1. COC[C@@H]1CCC(Nc2ccc(F)cc2)C2(O)CCCO[C@H]12 (stereo in doubt)
2. O[C@]12CCCC[C@@H]1CCC[C@H]2Nc1ccc(F)cc1

[35, 19]
